# Tested on: SK-MEL-2 melanoma
# measurement-protocol: NCI-60 one-dose screen, 48 h
# experimental-conditions: 10 µM unless noted
The panel holds about 83,000 compounds, 20% with a hit somewhere; the sample as a whole holds those more often. Activity calls are given as the source filed them. Rule for the calls: active = growth percent below 10; inactive = the rest.
Outcome field: choose from 1 (yes) (active), 0 (no) (inactive)

Ask: Any idea what this test logged for COC1=C(C)C(=O)c2c(c(CCCl)c3n2CCC3O)C1=O (stereo not given) ?
Result: 1 (yes)

Ask: Check the results log: what was the call for Cc1ccc2nc(NC(=O)CSc3nc(Cl)c(C#N)c(-c4ccccc4)n3)sc2c1 ?
Result: 0 (no)

Ask: For this compound, state the assay outcome: Cc1nc2ccccc2c(/C=C/c2ccc(Cl)cc2)c1C(=O)/C=C/c1ccc(C(F)(F)F)cc1
Result: 1 (yes)

Next:
Ask: What classification did C=C1C(=O)O[C@H]2[C@H]1CC/C(COC(=O)CSCC(=O)OC/C1=C/CC[C@@]3(C)O[C@H]3[C@H]3OC(=O)C(=C)[C@@H]3CC1)=C\CC[C@@]1(C)O[C@@H]21 end up with in this test?
Result: 0 (no)

Ask: # fetch the recorded call for Cc1nc(NC(=O)COc2ccc(/C=C3\Cc4ccc(Cl)cc4C3=O)cc2)sc1C here
Result: 0 (no)

Ask: What classification did COc1ccc2sc3c(NCCCNCCO)nc4ccccc4c3c(=O)c2c1 end up with in this test?
Result: 0 (no)
